- system-under-test: T1, cynomolgus monkey BCMA (cynomolgus monkey, UniProt A0A2K5UD97 1-53)
- T1 construct: Soluble analyte in SPR; construct not described; also called cyBCMA; Cyno BCMA
- T1 sequence (A0A2K5UD97 entry or part of it): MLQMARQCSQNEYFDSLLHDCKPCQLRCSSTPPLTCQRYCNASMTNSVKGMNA
- test-name: SPR, IgG on chip, cyBCMA analyte
Catalogue of koff values
measurement-label: koff (s⁻¹)

INSERT INTO results (binder, measurement_label, reported_measurement) VALUES
  ('COMBO_Rd4_0.6nM_C05 (antibody, V domains shown, IgG) VH: EVQLLESGGGLVQPGGSLRLSCAASGFTFSSYAMNWVRQAPGKGLEWVSAIGGSGGSTYYADSVKGRFTISRDNSKNTLYLQMNSLRAEDTAVYYCARYWPMSLWGQGTLVTVSS VL: EIVLTQSPGTLSLSPGERATLSCRASQSVSSTYLAWYQQKPGQAPRLLMYDASIRATGIPDRFSGSGSGTDFTLTISRLEPEDFAVYYCQQYMSWPLTFGQGTKVEIK', 'koff', 0.00172),
  ('COMBO_Rd4_0.6nM_C14 (antibody, V domains shown, IgG) VH: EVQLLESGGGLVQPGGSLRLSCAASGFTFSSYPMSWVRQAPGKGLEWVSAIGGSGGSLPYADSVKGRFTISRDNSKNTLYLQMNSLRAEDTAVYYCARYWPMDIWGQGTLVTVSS VL: EIVLTQSPGTLSLSPGERATLSCRASQSVSALYLAWYQQKPGQAPRLLMYDASIRATGIPDRFSGSGSGTDFTLTISRLEPEDFAVYYCQQYYGWPLTFGQGTKVEIK', 'koff', 0.000645),
  ('COMBO_Rd4_6nM_C08 (antibody, V domains shown, IgG) VH: EVQLLESGGGLVQPGGSLRLSCAASGFTFSSYPMSWVRQAPGKGLEWVSAIGGSGTWTYYADSVKGRFTISRDNSKNTLYLQMNSLRAEDTAVYYCARYWPMDSWGQGTLVTVSS VL: EIVLTQSPGTLSLSPGERATLSCRASQSVSSSYLAWYQQKPGQAPRLLMYDASIRATGIPDRFSGSGSGTDFTLTISRLEPEDFAVYYCQQYQKWPLTFGQGTKVEIK', 'koff', 0.000428);
